Measured pIC50 accompanies every entry in the list below.
- ASSAY_DETAILS: Cytotoxicity against human LCLC-103H cells after 96 hrs by crystal violet staining
- Format: functional, cell-based
pIC50: −log10 of the molar value.

{"COMPOUND": "COc1ccc(CN2C[C@H]3C(c4ccccc4)CC(=O)[C@@H]2CN3Cc2ccccc2)cc1 (single isomer, unassigned; form 2)", "VALUE_PREFIX": "=", "pIC50": 4.70}
{"COMPOUND": "C=CCN1C[C@@H]2[C@H](Oc3ccccc3)CC[C@H]1CN2Cc1ccc(OC)cc1OC", "VALUE_PREFIX": "<", "pIC50": 4.70}
{"COMPOUND": "C=CCN1C[C@@H]2c3[nH]c4ccc(OC)cc4c3C[C@H]1CN2Cc1ccc(OC)cc1OC", "VALUE_PREFIX": "=", "pIC50": 4.82}
{"COMPOUND": "C=CCN1C[C@@H]2[C@@H](Oc3ccccc3)CC[C@H]1CN2Cc1ccc(OC)cc1", "VALUE_PREFIX": "<", "pIC50": 4.70}
{"COMPOUND": "C=CCN1C[C@H]2c3nc4ccccc4c(C)c3C[C@@H]1CN2Cc1ccc(OC)cc1OC", "VALUE_PREFIX": "=", "pIC50": 4.88}
{"COMPOUND": "COc1ccc(CN2C[C@H]3C(c4ccccc4)CC(=O)[C@@H]2CN3Cc2ccccc2)cc1 (single isomer, unassigned; form 1)", "VALUE_PREFIX": "<", "pIC50": 4.70}
{"COMPOUND": "C=CCN1C[C@H]2[C@@H](OCc3ccccc3)CC[C@@H]1CN2Cc1ccc(OC)cc1OC", "VALUE_PREFIX": "=", "pIC50": 5.06}

###

- SUBJECT_OF_TEST: Sigma non-opioid intracellular receptor 1 (Cavia porcellus)
- ASSAY_DETAILS: Displacement of [3H](+)-pentazocine from sigma 1 receptor in guinea pig brain membrane at 1 uM by scintillation analysis
- Assay type: cell membranes
Each entry gets false (0) if its Activity stays under 20%, and true (1) if its Activity is 20% or above.

{"COMPOUND": "C=CCN1C[C@H]2c3nc4ccccc4c(C)c3C[C@@H]1CN2Cc1ccc(OC)cc1", "ANSWER_LABEL": "false (0)"}
{"COMPOUND": "COc1ccc(CN2C[C@H]3C(c4ccccc4)CC(=O)[C@@H]2CN3Cc2ccccc2)cc1 (single isomer, unassigned; form 1)", "ANSWER_LABEL": "true (1)"}
{"COMPOUND": "C=CCN1C[C@H]2c3[nH]c4ccc(OC)cc4c3C[C@@H]1CN2Cc1ccc(OC)cc1OC", "ANSWER_LABEL": "false (0)"}
{"COMPOUND": "C=CCN1C[C@H]2[C@@H](Oc3ccccc3)CC[C@@H]1CN2Cc1ccc(OC)cc1", "ANSWER_LABEL": "true (1)"}

###

- SUBJECT_OF_TEST: Sigma non-opioid intracellular receptor 1 (Homo sapiens, UniProt Q99720)
- Sequence (Q99720 whole entry): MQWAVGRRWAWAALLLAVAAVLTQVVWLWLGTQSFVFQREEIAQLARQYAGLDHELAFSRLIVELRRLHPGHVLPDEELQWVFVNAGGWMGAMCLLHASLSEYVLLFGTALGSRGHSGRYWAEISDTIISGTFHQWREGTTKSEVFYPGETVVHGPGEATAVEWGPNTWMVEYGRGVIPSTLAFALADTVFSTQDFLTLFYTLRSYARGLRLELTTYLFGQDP
- ASSAY_DETAILS: Binding affinity to sigma 1 receptor
pKi: −log10 of the molar value.

{"COMPOUND": "C=CCN1CC2[C@@H](O)CCC1CN2Cc1ccc(OC)cc1 (some centres undefined)", "pKi": 5.65}
{"COMPOUND": "COc1ccc(CN2CCN(Cc3ccccc3)[C@@H](CO)C2)cc1", "pKi": 7.92}
{"COMPOUND": "C=CCN1CC2C(=O)CCC1CN2Cc1ccc(OC)cc1 (centres undefined)", "pKi": 5.80}
{"COMPOUND": "COc1ccc(CN2CC3CCC(=O)C2CN3Cc2ccccc2)cc1 (centres undefined)", "pKi": 7.28}

###

- ASSAY_DETAILS: Cytotoxicity against human LCLC-103H cells after 96 hrs by crystal violet staining
- Type: functional, cell-based
pIC50: −log10 of the molar value.
MEASURE_NAME: pIC50

{"COMPOUND": "C=CCN1C[C@H]2[C@H](OCc3ccccc3)CC[C@@H]1CN2Cc1ccc(OC)cc1", "MEASURE_NAME": "pIC50", "RECORDED_VALUE": 4.70}
{"COMPOUND": "C=CCN1C[C@@H]2c3[nH]c4ccc(OC)cc4c3C[C@H]1CN2Cc1ccc(OC)cc1", "MEASURE_NAME": "pIC50", "RECORDED_VALUE": "< 4.70"}
{"COMPOUND": "C=CCN1C[C@@H]2[C@@H](Oc3ccccc3)CC[C@H]1CN2Cc1ccc(OC)cc1OC", "MEASURE_NAME": "pIC50", "RECORDED_VALUE": "< 4.70"}
{"COMPOUND": "C=CCN1C[C@H]2c3[nH]c4ccccc4c3C[C@@H]1CN2Cc1ccc(OC)cc1", "MEASURE_NAME": "pIC50", "RECORDED_VALUE": "< 4.70"}
{"COMPOUND": "C=CCN1C[C@H]2/C(=C\\c3ccccc3)CC[C@@H]1CN2Cc1ccc(OC)cc1", "MEASURE_NAME": "pIC50", "RECORDED_VALUE": 4.75}
{"COMPOUND": "O=C(CCCN1CCC(O)(c2ccc(Cl)cc2)CC1)c1ccc(F)cc1", "MEASURE_NAME": "pIC50", "RECORDED_VALUE": "< 4.70"}
{"COMPOUND": "C=CCN1C[C@@H]2c3[nH]c4ccccc4c3C[C@H]1CN2Cc1ccc(OC)cc1OC", "MEASURE_NAME": "pIC50", "RECORDED_VALUE": "< 4.70"}
{"COMPOUND": "C=CCN1C[C@@H]2[C@@H](OCc3ccccc3)CC[C@H]1CN2Cc1ccc(OC)cc1OC", "MEASURE_NAME": "pIC50", "RECORDED_VALUE": 5.08}
{"COMPOUND": "C=CCN1C[C@H]2[C@@H](Oc3ccccc3)CC[C@@H]1CN2Cc1ccc(OC)cc1OC", "MEASURE_NAME": "pIC50", "RECORDED_VALUE": "< 4.70"}
{"COMPOUND": "C=CCN1C[C@H]2[C@@H](Oc3ccccc3)CC[C@@H]1CN2Cc1ccc(OC)cc1", "MEASURE_NAME": "pIC50", "RECORDED_VALUE": "< 4.70"}
{"COMPOUND": "C=CCN1C[C@@H]2/C(=C\\c3ccccc3)CC[C@H]1CN2Cc1ccc(OC)cc1OC", "MEASURE_NAME": "pIC50", "RECORDED_VALUE": 4.96}
{"COMPOUND": "C=CCN1C[C@H]2[C@H](OCc3ccccc3)CC[C@@H]1CN2Cc1ccc(OC)cc1OC", "MEASURE_NAME": "pIC50", "RECORDED_VALUE": 5.09}
{"COMPOUND": "COc1ccc(CN2C[C@@H]3[C@@H](c4ccccc4)CC(=O)[C@H]2CN3Cc2ccccc2)cc1", "MEASURE_NAME": "pIC50", "RECORDED_VALUE": "< 4.70"}
{"COMPOUND": "C=CCN1C[C@@H]2[C@H](OCc3ccccc3)CC[C@H]1CN2Cc1ccc(OC)cc1", "MEASURE_NAME": "pIC50", "RECORDED_VALUE": 4.66}
{"COMPOUND": "CCCN1CC2C(=O)C[C@@H](c3ccccc3)C1CN2Cc1ccc(OC)cc1 (stereo partly drawn)", "MEASURE_NAME": "pIC50", "RECORDED_VALUE": "< 4.70"}
{"COMPOUND": "C=CCN1C[C@H]2[C@H](Oc3ccccc3)CC[C@@H]1CN2Cc1ccc(OC)cc1", "MEASURE_NAME": "pIC50", "RECORDED_VALUE": "< 4.70"}
{"COMPOUND": "C=CCN1C[C@H]2/C(=C\\c3ccccc3)CC[C@@H]1CN2Cc1ccc(OC)cc1OC", "MEASURE_NAME": "pIC50", "RECORDED_VALUE": 4.90}
{"COMPOUND": "CCCN1CC2C(=O)C[C@H](c3ccccc3)C1CN2Cc1ccc(OC)cc1 (stereo partly drawn)", "MEASURE_NAME": "pIC50", "RECORDED_VALUE": "< 4.70"}

###

- SUBJECT_OF_TEST: Sigma non-opioid intracellular receptor 1 (Cavia porcellus, UniProt Q60492)
- Sequence (Q60492 whole entry): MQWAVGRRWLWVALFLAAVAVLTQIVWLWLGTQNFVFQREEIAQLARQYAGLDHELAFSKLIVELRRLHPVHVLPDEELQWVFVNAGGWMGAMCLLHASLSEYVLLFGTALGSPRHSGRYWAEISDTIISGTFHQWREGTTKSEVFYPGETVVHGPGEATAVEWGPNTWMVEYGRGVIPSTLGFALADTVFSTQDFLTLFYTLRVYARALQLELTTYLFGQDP
- ASSAY_DETAILS: Displacement of [3H](+)-pentazocine from sigma 1 receptor in guinea pig brain membrane by scintillation analysis
pKi: −log10 of the molar value.
Each entry gets not fulfilled if its pKi stays under 6, and fulfilled if its pKi is 6 or above.

{"MOLECULE_SMILES": "C=CCN1C[C@@H]2[C@H](Oc3ccccc3)CC[C@H]1CN2Cc1ccc(OC)cc1", "ANSWER_LABEL": "not fulfilled"}
{"MOLECULE_SMILES": "C=CCN1C[C@H]2/C(=C\\c3ccccc3)CC[C@@H]1CN2Cc1ccc(OC)cc1", "ANSWER_LABEL": "fulfilled"}
{"MOLECULE_SMILES": "C=CCN1C[C@@H]2[C@H](OCc3ccccc3)CC[C@H]1CN2Cc1ccc(OC)cc1", "ANSWER_LABEL": "fulfilled"}
{"MOLECULE_SMILES": "C=CCN1C[C@@H]2[C@@H](OCc3ccccc3)CC[C@H]1CN2Cc1ccc(OC)cc1OC", "ANSWER_LABEL": "fulfilled"}
{"MOLECULE_SMILES": "C=CCN1C[C@@H]2/C(=C\\c3ccccc3)CC[C@H]1CN2Cc1ccc(OC)cc1OC", "ANSWER_LABEL": "fulfilled"}
